- ASSAY: Cytotoxicity against human KB3 cells expressing human UGT1A10 assessed as decrease in cell viability after 72 hrs by MTT assay
- Type: functional, cell-based
- STATED CONDITIONS: KB3, 72 h
MEASURED ATTRIBUTE: pIC50
Please report pIC50 as the negative decimal logarithm of the molar concentration, giving only the number.

[
  {
    "COMPOUND STRUCTURE STRING": "CN(C)CCCNc1ccc2nnn3c4ccc(O)cc4c(=O)c1c23.Cl",
    "pIC50": 6.74
  }
]

Here is another molecule to look at.
Output pIC50 of CCN(CC)CCNc1ccc2ncn3c4ccc(O)cc4c(=O)c1c23.Cl
6.88

Cited source: ChEMBL document CHEMBL3525991
